Recorded NEUTROPHIL by entry
- Organism: Rattus norvegicus
- measurementProtocol: DrugMatrix - Regimen: Daily Repeat
- Type: toxicity, organism-based, Sprague-Dawley
- Parameters: regimen Daily Repeat, gender Male, age 6-8 weeks
- conditionsUsed: in vivo, po, 0 mg/kg, 72 h, tissue Blood, route oral GAVAGE, dose level Control, time 3 day, vehicle .5 % CMC
measurementKind: NEUTROPHIL (%)

{"columns": ["compound", "u", "readoutValue"],
 "data": [
  ["O=C1c2ccccc2C(=O)C1c1ccccc1 [PHENINDIONE]", "%", 11.16],
  ["COc1cc(NC(C)CCCN)c2ncccc2c1 (stereo unspecified) [PRIMAQUINE]", "%", 13.8],
  ["CCN1C[C@]2(COC)[C@H](O)C[C@H](OC)[C@@]34[C@@H]5C[C@@]6(O)[C@H](OC(=O)c7ccccc7)[C@@H]5[C@@](OC(C)=O)([C@@H]([C@H](OC)[C@H]23)[C@@H]14)[C@@H](O)[C@@H]6OC [ACONITINE]", "%", 11.16],
  ["CCN1CCCC1CNC(=O)c1cc(S(N)(=O)=O)ccc1OC (stereo unspecified) [SULPIRIDE]", "%", 7.17],
  ["Cc1cc2c(s1)Nc1ccccc1N=C2N1CCN(C)CC1 [OLANZAPINE]", "%", 8.5],
  ["CC(C)(C#N)c1cc(Cn2cncn2)cc(C(C)(C)C#N)c1 [ANASTROZOLE]", "%", 11.33],
  ["CCOc1cc(N)c(Cl)cc1C(=O)NCC1CN(Cc2ccc(F)cc2)CCO1 (stereo unspecified) [MOSAPRIDE]", "%", 7.67],
  ["Cl.NC[C@H]1CC[C@H](C(=O)Oc2ccc(CCC(=O)O)cc2)CC1 [CETRAXATE HYDROCHLORIDE]", "%", 7.17],
  ["CN(C)CCC=C1c2ccccc2COc2ccccc21 [DOXEPIN]", "%", 19.83],
  ["CC(=O)Nc1ccc2c(c1)Cc1ccccc1-2 [2-ACETYLAMINOFLUORENE]", "%", 7.67],
  ["NCC(CC(=O)O)c1ccc(Cl)cc1 (stereo unspecified) [BACLOFEN]", "%", 7.67]
]}
